All figures here come from paper PMC5051080.

protocol-description: Single-dose pharmacokinetics in cancer patients
Type: in vivo, human
study-conditions: human, plasma; single oral dose 16 mg/person (n = 4)
metric-name: Tmax (h)
Respond with the bare value in h.

Asked: What measured Tmax goes with COc1cc2c(Oc3ccc4[nH]c(C)cc4c3F)ccnc2cc1OCC1(N)CC1 [anlotinib] ?
Given back: 11

====

protocol-description: Single-dose pharmacokinetics in cancer patients
Format: in vivo, human
study-conditions: human, plasma; single oral dose 5-16 mg/person, range
metric-name: half-life

Asked: What measured half-life goes with COc1cc2c(Oc3ccc4[nH]c(C)cc4c3F)ccnc2cc1OCC1(N)CC1 [anlotinib] ?
Given back: 64 to 136 h
